The origin of these recorded values is the supplement of paper PMC10567573.

B1: PCMTD2 (parent)
chain: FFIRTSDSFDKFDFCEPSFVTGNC

- Variants of: B1
- assayInfo: protein stability index of a GFP-peptide fusion (GPS, HEK-293T) (PSI 1-6); higher = more stable;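 further: lentivirally expressed fusions sorted by FACS into six bins by GFP to DsRed ratio, PSI derived from sequencing read proportions per bin multiplied by bin number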
- conditions: c terminus: a fixed tail appended
testReadout: protein stability index
// keep it numeric: no unit symbol after the value

> print(dat)
                    primarysequence              testreadout  experimentalresult
 1   FSIRTSDSFDKFDFCEPSFVTGNC [F2S]  protein stability index                2.01
 2   FFIRWSDSFDKFDFCEPSFVTGNC [T5W]  protein stability index                2.53
 3  FFIRTSDSFDKFDFCEMSFVTGNC [P17M]  protein stability index                2.69
 4  FFIRTSDSFDKFDFCEPSFVTQNC [G22Q]  protein stability index                2.74
 5  FFIRTSDSFMKFDFCEPSFVTGNC [D10M]  protein stability index                3.52
 6  FFIRTSDSFDKFDFCEPSFVTGVC [N23V]  protein stability index                2.89
 7  FFIRTSDSFDTFDFCEPSFVTGNC [K11T]  protein stability index                2.84
 8  FFIRTSDSFDKFDFCEPSFVTYNC [G22Y]  protein stability index                1.85
 9  FFIRTSDSFDKFDFCEPSCVTGNC [F19C]  protein stability index                1.49
10   FFIRTADSFDKFDFCEPSFVTGNC [S6A]  protein stability index                2.04

Then this variant:
The variant listed as FFIRTSDSFDKFDWCEPSFVTGNC [F14W] shows protein stability index equal to 2.71
